Values from ChEMBL document CHEMBL5365447

Please provide measured selectivity ratio for the entries that follow.
test: Selectivity index, ratio of CC50 for human CEM cells to EC50 for HIV-2 ROD infected in thymidine kinase-deficient human CEM cells; assay type: toxicity; details: read-out: Ratio CC50/EC50
# respond with the number and nothing more

selectivity ratio for CCCCCCCCCCCCCCCCCCOP(=O)(OCCCC)OP(=O)(O)OP(=O)(O)OC[C@@H]1C=C[C@H](n2cc(C)c(=O)[nH]c2=O)O1.N.N (some centres undefined) ?
938

selectivity ratio for CCCCCCCCCCCCOP(=O)(OCc1ccc(OC(=O)CCCCCCCCCCC)cc1)OP(=O)(O)OC[C@@H]1C=C[C@H](n2cc(C)c(=O)[nH]c2=O)O1.N (some centres undefined) ?
1010

* * *

test system: Human immunodeficiency virus; assay: Substrate activity at HIV reverse transcriptase measured after 4 hrs by electrophoresis based primer extension assay
The source made the active and inactive calls. The calls are words filed in the database; no cut-off is given here.
The reply should name one outcome from active, inactive

Record request — test call for CCCCCCCCCCCCCCCCCCP(=O)(OC)OP(=O)(O)OP(=O)(O)OC[C@@H]1C=C[C@H](n2cc(C)c(=O)[nH]c2=O)O1.N.N (some centres undefined)
active

Record request — test call for CCCCCCCCCCCCCCCCCCOP(=O)(OCC(CC)CCCC)OP(=O)(O)OP(=O)(O)OC[C@@H]1C=C[C@H](n2cc(C)c(=O)[nH]c2=O)O1.N.N (some centres undefined)
active

Record request — test call for CCCCCCCCCCCCCCCCCCOP(=O)(OC)OP(=O)(O)OP(=O)(O)OC[C@@H]1C=C[C@H](n2cc(C)c(=O)[nH]c2=O)O1.N.N (some centres undefined)
active

Record request — test call for CCCCCCCCCCCCCCCCCCP(=O)(OCCCC)OP(=O)(O)OC[C@@H]1C=C[C@H](n2cc(C)c(=O)[nH]c2=O)O1.N (some centres undefined)
active

Record request — test call for Cc1cn([C@H]2C=C[C@@H](COP(=O)(O)OP(=O)(O)O)O2)c(=O)[nH]c1=O
active

Record request — test call for CCCCCCCCCCCCCCCCCCOP(=O)(OCCCC)OP(=O)(O)OP(=O)(O)OC[C@@H]1C=C[C@H](n2cc(C)c(=O)[nH]c2=O)O1.N.N (some centres undefined)
active

Record request — test call for CCCCCCCCCCCCCCCCCCOP(=O)(O)OP(=O)(O)OC[C@@H]1C=C[C@H](n2cc(C)c(=O)[nH]c2=O)O1.N.N
inactive

Record request — test call for CCCCCCCCCCCCCCCCCCOP(=O)(OCCCC)OP(=O)(O)OC[C@@H]1C=C[C@H](n2cc(C)c(=O)[nH]c2=O)O1.N (some centres undefined)
inactive

Record request — test call for CCCCCCCCCCCCCCCCCCP(=O)(OCCCC)OP(=O)(O)OP(=O)(O)OC[C@@H]1C=C[C@H](n2cc(C)c(=O)[nH]c2=O)O1.N.N (some centres undefined)
inactive

* * *

experiment: Prodrug conversion in human CEM/0 cell extract assessed as ((2S,5R)-5-(5-methyl-2,4-dioxo-3,4-dihydropyrimidin-1(2H)-yl)-2,5-dihydrofuran-2-yl)methyl tri-hydrogen diphosphate formation by HPLC analysis; assay type: ADME; conditions: ccrf-cem

| Chem Smiles | Drug metabolism |
| --- | --- |
| CCCCCCCCCCCCCCCCCCOP(=O)(O)OP(=O)(O)OC[C@@H]1C=C[C@H](n2cc(C)c(=O)[nH]c2=O)O1.N.N | Metabolite_Notdetected |
| COP(=O)(O)OP(=O)(O)OC[C@@H]1C=C[C@H](n2cc(C)c(=O)[nH]c2=O)O1.N.N | Metabolite_Notdetected |
| CCCCCCCCCCCCOP(=O)(O)OP(=O)(O)OC[C@@H]1C=C[C@H](n2cc(C)c(=O)[nH]c2=O)O1.N.N | Metabolite_Notdetected |
